- Target: CtermHisTag-mEGFR Wild type (Homo sapiens, UniProt P00533)
- Sequence (P00533 whole entry): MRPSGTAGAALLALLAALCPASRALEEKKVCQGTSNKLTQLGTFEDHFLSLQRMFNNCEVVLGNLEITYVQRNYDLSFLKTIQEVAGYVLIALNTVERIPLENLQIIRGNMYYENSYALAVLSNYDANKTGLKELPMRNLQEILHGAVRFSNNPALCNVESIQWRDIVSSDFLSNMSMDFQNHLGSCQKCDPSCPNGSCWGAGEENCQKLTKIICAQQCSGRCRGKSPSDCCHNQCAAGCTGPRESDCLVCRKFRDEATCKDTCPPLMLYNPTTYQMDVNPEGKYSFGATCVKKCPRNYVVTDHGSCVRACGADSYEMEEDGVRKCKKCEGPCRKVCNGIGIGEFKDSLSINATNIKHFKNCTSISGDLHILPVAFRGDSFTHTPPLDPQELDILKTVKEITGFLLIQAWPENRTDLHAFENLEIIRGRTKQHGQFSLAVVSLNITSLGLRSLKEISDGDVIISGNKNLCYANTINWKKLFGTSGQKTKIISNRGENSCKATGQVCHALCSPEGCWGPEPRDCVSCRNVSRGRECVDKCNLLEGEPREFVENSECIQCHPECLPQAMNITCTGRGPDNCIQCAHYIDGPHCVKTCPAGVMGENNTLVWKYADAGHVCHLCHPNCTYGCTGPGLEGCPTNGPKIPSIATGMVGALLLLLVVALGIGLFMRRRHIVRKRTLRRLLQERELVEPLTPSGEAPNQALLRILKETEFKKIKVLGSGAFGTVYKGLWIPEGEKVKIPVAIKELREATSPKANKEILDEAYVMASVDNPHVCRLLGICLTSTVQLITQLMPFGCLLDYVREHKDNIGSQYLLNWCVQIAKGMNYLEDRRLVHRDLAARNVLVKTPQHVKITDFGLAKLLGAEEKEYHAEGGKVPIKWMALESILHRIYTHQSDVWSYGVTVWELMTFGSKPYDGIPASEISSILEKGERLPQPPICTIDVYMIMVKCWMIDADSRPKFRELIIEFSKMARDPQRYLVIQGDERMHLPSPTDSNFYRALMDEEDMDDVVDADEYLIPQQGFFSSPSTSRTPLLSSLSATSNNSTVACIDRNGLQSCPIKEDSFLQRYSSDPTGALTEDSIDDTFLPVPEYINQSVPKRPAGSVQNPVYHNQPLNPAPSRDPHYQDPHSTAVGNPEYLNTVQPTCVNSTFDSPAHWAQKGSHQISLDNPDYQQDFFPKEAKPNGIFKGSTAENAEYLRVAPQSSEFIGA
- Method Description: biochemical
Property Label: IC50

Give IC50 for the following compound: C#Cc1cc(=O)n([C@H]2CC[C@@H](CO)CC2)c2nc(Nc3ccc(N(C)CCN(C)C)cc3)ncc12 [Example 80]
< 1000 nM

Give IC50 for the following compound: C#Cc1cc(=O)n(C(C)C)c2nc(Nc3ccccc3OC)ncc12 [Example 83]
> 10000 nM

Give IC50 for the following compound: C#Cc1cc(=O)n2c3nc(ncc13)Nc1ccc(N3CCN(CCOC)CC3)c(c1)OCCCC2 [Example 241]
< 1000 nM

Give IC50 for the following compound: C#Cc1cc(=O)n(C)c2nc(Nc3ccc(N4CCN(C)CC4)c(OC)c3)ncc12 [Example 208]
< 1000 nM

Give IC50 for the following compound: C#Cc1cc(=O)n(C2CCCC2)c2nc(Nc3cccc(N(C)[C@H]4CC[C@@H](CS(C)(=O)=O)CC4)c3)ncc12 [Example 204]
< 1000 nM
